Please respond with reported EC50 for every item in the list.
Molecular target: Melanocyte-stimulating hormone receptor (Mus musculus, UniProt Q01727)
Sequence (Q01727 whole entry): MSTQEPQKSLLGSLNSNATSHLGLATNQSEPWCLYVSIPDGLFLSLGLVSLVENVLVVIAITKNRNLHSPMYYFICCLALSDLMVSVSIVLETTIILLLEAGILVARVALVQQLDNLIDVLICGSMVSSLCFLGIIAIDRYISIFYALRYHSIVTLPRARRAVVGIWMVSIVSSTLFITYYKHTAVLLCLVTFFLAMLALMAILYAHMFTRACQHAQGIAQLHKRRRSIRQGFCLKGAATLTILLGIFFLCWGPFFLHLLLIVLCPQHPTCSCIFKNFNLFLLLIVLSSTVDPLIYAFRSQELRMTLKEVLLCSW
Experiment: Maximal agonist response of mouse melanocortin 1 receptor (MC1R)
Assay type: functional
Please state the figure in nM; there is no need to write the unit.

Request: Provide EC50 value for the following compound: C[C@@H](O)[C@H](NC(=O)[C@@H]1CCCCNC(=O)C[C@H](NC(=O)[C@H](N)Cc2ccccc2)C(=O)N[C@@H](Cc2cnc[nH]2)C(=O)N[C@H](Cc2ccccc2)C(=O)N[C@@H](CCCNC(=N)N)C(=O)N[C@@H](Cc2c[nH]c3ccccc23)C(=O)N1)C(N)=O
Response: 0.047

Request: Fill in reported EC50 for this entry: C[C@H](O)[C@@H](NC(=O)[C@H]1CSSC[C@H](NC(=O)[C@H](N)Cc2ccccc2)C(=O)N[C@@H](Cc2cnc[nH]2)C(=O)N[C@@H](Cc2ccc(Cl)cc2)C(=O)N[C@@H](CCCNC(=N)N)C(=O)N[C@H](Cc2c[nH]c3ccccc23)C(=O)N1)C(N)=O
Response: 0.37

Request: Tell me its EC50 given C[C@@H](O)[C@H](NC(=O)[C@H]1CSSC[C@H](NC(=O)[C@H](N)Cc2ccccc2)C(=O)N[C@H](Cc2cnc[nH]2)C(=O)N[C@H](Cc2ccccc2)C(=O)N[C@@H](CCCNC(=N)N)C(=O)N[C@H](Cc2c[nH]c3ccccc23)C(=O)N1)C(N)=O as the entry.
Response: 0.23

Request: Determine from records and report EC50 for C[C@@H](O)[C@H](NC(=O)[C@H]1NC(=O)[C@H](Cc2c[nH]c3ccccc23)NC(=O)[C@H](CCCNC(=N)N)NC(=O)[C@@H](Cc2ccccc2)NC(=O)[C@H](Cc2cnc[nH]2)NC(=O)[C@@H](NC(=O)[C@H](N)Cc2ccccc2)CSSC1(C)C)C(N)=O
Response: 6.9

Request: Annotate the compound C[C@@H](O)[C@H](NC(=O)[C@@H]1CCSSC[C@H](NC(=O)[C@H](N)Cc2ccccc2)C(=O)N[C@@H](Cc2cnc[nH]2)C(=O)N[C@H](Cc2ccccc2)C(=O)N[C@@H](CCCNC(=N)N)C(=O)N[C@@H](Cc2c[nH]c3ccccc23)C(=O)N1)C(N)=O with its measured EC50.
Response: 5.1

###

Target: Melanocortin receptor 4 (Mus musculus, UniProt P56450)
Sequence (P56450 whole entry): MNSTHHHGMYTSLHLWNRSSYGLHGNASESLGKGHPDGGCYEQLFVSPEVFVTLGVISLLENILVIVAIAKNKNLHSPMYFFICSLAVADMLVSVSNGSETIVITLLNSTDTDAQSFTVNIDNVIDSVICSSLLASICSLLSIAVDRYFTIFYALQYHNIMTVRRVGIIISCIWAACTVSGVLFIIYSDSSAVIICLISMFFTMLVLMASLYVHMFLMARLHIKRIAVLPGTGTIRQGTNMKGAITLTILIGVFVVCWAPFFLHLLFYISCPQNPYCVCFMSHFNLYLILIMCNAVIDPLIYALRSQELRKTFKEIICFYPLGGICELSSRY
Experiment: Effective concentration for maximum agonist response towards mouse melanocortin 4 receptor
Type: functional
pEC50: −log10 of the molar value.
Criterion met means recorded pEC50 is 9 or above; Criterion not met means it is below 9.

Request: Check the entry C[C@@H](O)[C@H](NC(=O)[C@@H]1CCSSC[C@H](NC(=O)[C@H](N)Cc2ccccc2)C(=O)N[C@@H](Cc2cnc[nH]2)C(=O)N[C@H](Cc2ccccc2)C(=O)N[C@@H](CCCNC(=N)N)C(=O)N[C@@H](Cc2c[nH]c3ccccc23)C(=O)N1)C(N)=O : does pEC50 equal or exceed 9?
Response: Criterion not met

Request: Decide: is the reported value of pEC50 for C[C@@H](O)[C@H](NC(=O)[C@H]1CSSC[C@H](NC(=O)[C@H](N)Cc2ccccc2)C(=O)N[C@H](Cc2cnc[nH]2)C(=O)N[C@H](Cc2ccccc2)C(=O)N[C@@H](CCCNC(=N)N)C(=O)N[C@H](Cc2c[nH]c3ccccc23)C(=O)N1)C(N)=O equal to or greater than 9?
Response: Criterion met

Request: Evaluate C[C@@H](O)[C@H](NC(=O)[C@H]1NC(=O)[C@H](Cc2c[nH]c3ccccc23)NC(=O)[C@H](CCCNC(=N)N)NC(=O)[C@@H](Cc2ccccc2)NC(=O)[C@H](Cc2cnc[nH]2)NC(=O)[C@@H](NC(=O)[C@H](N)Cc2ccccc2)CSSC1(C)C)C(N)=O : pEC50 at minimum 9?
Response: Criterion not met

Request: Exam item: decide whether the reported pEC50 for C[C@@H](O)[C@H](NC(=O)[C@@H]1CCCCNC(=O)C[C@H](NC(=O)[C@H](N)Cc2ccccc2)C(=O)N[C@@H](Cc2cnc[nH]2)C(=O)N[C@H](Cc2ccccc2)C(=O)N[C@@H](CCCNC(=N)N)C(=O)N[C@@H](Cc2c[nH]c3ccccc23)C(=O)N1)C(N)=O is at least 9.
Response: Criterion met
